Measured Comparative Example 2: proportion of reduced coenzyme Q10 by item
Assay: Reduction of oxidized coenzyme Q10 by amino acid in ethanol, HPLC proportion of reduced coenzyme Q10
Conditions: 6 equivalents amino acid, 78° C., 16 hours, nitrogen atmosphere
Record the value in %, omitting the unit from your answer.

line_notation=CC(C)[C@H](N)C(=O)O result_number=1

Entry `NCC(=O)O` ; Comparative Example 2: proportion of reduced coenzyme Q10 = 0

Please fill in: Comparative Example 2: proportion of reduced coenzyme Q10 reported for `C[C@H](N)C(=O)O` = 0

For this compound ( `CC[C@H](C)[C@H](N)C(=O)O` ), measured Comparative Example 2: proportion of reduced coenzyme Q10 is 1
